Cited source for all entries: patent US20240360144A1

- assay text: Pharmacokinetic assays of compounds after oral gavage administration to rats
- Type: in vivo, male SD rats
- cond: male SD rats, oral gavage, 30.0 mg/kg, suspension in 0.5% CMC-Na, plasma
reported metric: AUC(0-∞) (µg·h/L)

- compound: "C=CC(=O)N1CCC[C@@H](n2nc(-c3ccc(Oc4ccccc4)cc3)c3c(NC(=O)OCC(C)C)ncnc32)C1 [Compound 4]"
  AUC(0-∞) (µg·h/L): 976.4

(a) C=CC(=O)N1CCC[C@@H](n2nc(-c3ccc(Oc4ccccc4)cc3)c3c(NC(=O)OC(C)C)ncnc32)C1 [Compound 1]
(b) C=CC(=O)N1CCC[C@@H](n2nc(-c3ccc(Oc4ccccc4)cc3)c3c(NC(=O)OCCC)ncnc32)C1 [Compound 2]
Req: Could you kindly indicate whether a or b has the higher AUC(0-∞) value? Your choice should be expressed through its label.
Resp: a

----------
- assay text: Pharmacokinetic assays of compounds after oral gavage administration to rats
- Type: in vivo, male SD rats
- cond: male SD rats, oral gavage, 30.0 mg/kg, suspension in 0.5% CMC-Na, plasma
reported metric: Tmax (h)

Below: 3 molecules and their reported Tmax.
- molecule: "C=CC(=O)N1CCC[C@@H](n2nc(-c3ccc(Oc4ccccc4)cc3)c3c(NC(=O)OCC(C)C)ncnc32)C1 [Compound 4]"
  observed: 2.0
- molecule: "C=CC(=O)N1CCC[C@@H](n2nc(-c3ccc(Oc4ccccc4)cc3)c3c(NC(=O)OCCCC)ncnc32)C1 [Compound 3]"
  observed: 2.0
- molecule: "C=CC(=O)N1CCC[C@@H](n2nc(-c3ccc(Oc4ccccc4)cc3)c3c(NC(=O)OCCC)ncnc32)C1 [Compound 2]"
  observed: 2.0

(P) C=CC(=O)N1CCC[C@@H](n2nc(-c3ccc(Oc4ccccc4)cc3)c3c(NC(=O)OCCCCCC)ncnc32)C1 [Compound 5]
(Q) C=CC(=O)N1CCC[C@@H](n2nc(-c3ccc(Oc4ccccc4)cc3)c3c(NC(=O)OC(C)C)ncnc32)C1 [Compound 1]
Req: Which entry shows the lesser value of Tmax here, P or Q ? Your choice should be expressed through its label.
Resp: Q

----------
- assay text: Pharmacokinetic assays of compounds after oral gavage administration to rats
- Assay type: in vivo, male SD rats
- cond: rats, oral gavage
reported metric: time to peak concentration (h)

- smiles entry: "C=CC(=O)N1CCC[C@@H](n2nc(-c3ccc(Oc4ccccc4)cc3)c3c(NC(=O)OCCCC)ncnc32)C1"
  observed: 2
- smiles entry: "C=CC(=O)N1CCC[C@@H](n2nc(-c3ccc(Oc4ccccc4)cc3)c3c(NC(=O)OCC(C)C)ncnc32)C1"
  observed: 2

(1) C=CC(=O)N1CCC[C@@H](n2nc(-c3ccc(Oc4ccccc4)cc3)c3c(NC(=O)OCCC)ncnc32)C1
(2) C=CC(=O)N1CCC[C@@H](n2nc(-c3ccc(Oc4ccccc4)cc3)c3c(NC(=O)OC(C)C)ncnc32)C1
Req: Could you kindly indicate whether 1 or 2 has the higher time to peak concentration value? Your choice should be expressed through its label.
Resp: 1
(1: 2 h, 2: 1 h)

----------
- assay text: Pharmacokinetic assays of compounds after oral gavage administration to rats
- Format: in vivo, male SD rats
- Set-up: unit not given here
- cond: male SD rats, oral gavage, 30.0 mg/kg, suspension in 0.5% CMC-Na, plasma
reported metric: AUMC(0-t)

- compound: "C=CC(=O)N1CCC[C@@H](n2nc(-c3ccc(Oc4ccccc4)cc3)c3c(NC(=O)OCCCCCC)ncnc32)C1"
  reported metric: "AUMC(0-t)"
  observed: 1659.5
- compound: "C=CC(=O)N1CCC[C@@H](n2nc(-c3ccc(Oc4ccccc4)cc3)c3c(NC(=O)OCC(C)C)ncnc32)C1"
  reported metric: "AUMC(0-t)"
  observed: 2405.5
- compound: "C=CC(=O)N1CCC[C@@H](n2nc(-c3ccc(Oc4ccccc4)cc3)c3c(NC(=O)OCCC)ncnc32)C1"
  reported metric: "AUMC(0-t)"
  observed: 2844.3
- compound: "C=CC(=O)N1CCC[C@@H](n2nc(-c3ccc(Oc4ccccc4)cc3)c3c(NC(=O)OCCCC)ncnc32)C1"
  reported metric: "AUMC(0-t)"
  observed: 3939.9

(a) C=CC(=O)N1CCC[C@@H](n2nc(-c3ccc(Oc4ccccc4)cc3)c3c(NC(=O)OC(C)C)ncnc32)C1
(b) C=CC(=O)N1CCC[C@@H](n2nc(-c3ccc(Oc4ccccc4)cc3)c3c(N)ncnc32)C1 [Compound 4-AAM, reference compound]
Req: Which entry shows the lesser value of AUMC(0-t) here, a or b ? Your choice should be expressed through its label.
Resp: b
(b: 1316.6, a: 2950.4)

----------
- assay text: Pharmacokinetic assays of compounds after oral gavage administration to rats
- Type: in vivo, male SD rats
- cond: male SD rats, oral gavage, 30.0 mg/kg, suspension in 0.5% CMC-Na, plasma
reported metric: CLz/F (mL/min/kg)

Below: 3 compounds and their reported CLz/F.
- compound: "C=CC(=O)N1CCC[C@@H](n2nc(-c3ccc(Oc4ccccc4)cc3)c3c(NC(=O)OCCCCCC)ncnc32)C1 [Compound 5]"
  reported metric: "CLz/F"
  observed: 852
- compound: "C=CC(=O)N1CCC[C@@H](n2nc(-c3ccc(Oc4ccccc4)cc3)c3c(NC(=O)OCC(C)C)ncnc32)C1 [Compound 4]"
  reported metric: "CLz/F"
  observed: 512
- compound: "C=CC(=O)N1CCC[C@@H](n2nc(-c3ccc(Oc4ccccc4)cc3)c3c(NC(=O)OCCCC)ncnc32)C1 [Compound 3]"
  reported metric: "CLz/F"
  observed: 363

(P) C=CC(=O)N1CCC[C@@H](n2nc(-c3ccc(Oc4ccccc4)cc3)c3c(NC(=O)OC(C)C)ncnc32)C1 [Compound 1]
(Q) C=CC(=O)N1CCC[C@@H](n2nc(-c3ccc(Oc4ccccc4)cc3)c3c(NC(=O)OCCC)ncnc32)C1 [Compound 2]
Req: Could you kindly indicate whether P or Q has the higher CLz/F value? Your choice should be expressed through its label.
Resp: Q
(Q: 708 mL/min/kg, P: 472 mL/min/kg)

----------
- assay text: Pharmacokinetic assays of compounds after oral gavage administration to rats
- Assay type: in vivo, male SD rats
- cond: male SD rats, oral gavage, 30.0 mg/kg, suspension in 0.5% CMC-Na, plasma
reported metric: MRT(0-t) (h)

(1) C=CC(=O)N1CCC[C@@H](n2nc(-c3ccc(Oc4ccccc4)cc3)c3c(NC(=O)OCCC)ncnc32)C1
(2) C=CC(=O)N1CCC[C@@H](n2nc(-c3ccc(Oc4ccccc4)cc3)c3c(NC(=O)OC(C)C)ncnc32)C1
Req: Which entry shows the lesser value of MRT(0-t) here, 1 or 2 ? Your choice should be expressed through its label.
Resp: 2

----------
- assay text: Pharmacokinetic assays of compounds after oral gavage administration to rats
- Type: in vivo, male SD rats
- cond: rats, oral gavage
reported metric: mean retention time (h)

- smiles entry: "C=CC(=O)N1CCC[C@@H](n2nc(-c3ccc(Oc4ccccc4)cc3)c3c(NC(=O)OC(C)C)ncnc32)C1"
  unit abbrev: "h"
  mean retention time: 2.8
- smiles entry: "C=CC(=O)N1CCC[C@@H](n2nc(-c3ccc(Oc4ccccc4)cc3)c3c(NC(=O)OCCCC)ncnc32)C1"
  unit abbrev: "h"
  mean retention time: 2.9

(1) C=CC(=O)N1CCC[C@@H](n2nc(-c3ccc(Oc4ccccc4)cc3)c3c(NC(=O)OCC(C)C)ncnc32)C1
(2) C=CC(=O)N1CCC[C@@H](n2nc(-c3ccc(Oc4ccccc4)cc3)c3c(NC(=O)OCCC)ncnc32)C1
Req: Could you kindly indicate whether 1 or 2 has the higher mean retention time value? Your choice should be expressed through its label.
Resp: 2
(2: 4.3 h, 1: 2.5 h)

----------
- assay text: Pharmacokinetic assays of compounds after oral gavage administration to rats
- Assay type: in vivo, male SD rats
- cond: male SD rats, oral gavage, 30.0 mg/kg, suspension in 0.5% CMC-Na, plasma
reported metric: VRT(0-∞) (h^2)

Below: 3 molecules and their reported VRT(0-∞).
- molecule: "C=CC(=O)N1CCC[C@@H](n2nc(-c3ccc(Oc4ccccc4)cc3)c3c(NC(=O)OC(C)C)ncnc32)C1"
  VRT(0-∞) / h^2: 6.3
- molecule: "C=CC(=O)N1CCC[C@@H](n2nc(-c3ccc(Oc4ccccc4)cc3)c3c(NC(=O)OCC(C)C)ncnc32)C1"
  VRT(0-∞) / h^2: 4.8
- molecule: "C=CC(=O)N1CCC[C@@H](n2nc(-c3ccc(Oc4ccccc4)cc3)c3c(N)ncnc32)C1 [Compound 4-AAM, reference compound]"
  VRT(0-∞) / h^2: 47.6

(A) C=CC(=O)N1CCC[C@@H](n2nc(-c3ccc(Oc4ccccc4)cc3)c3c(NC(=O)OCCC)ncnc32)C1
(B) C=CC(=O)N1CCC[C@@H](n2nc(-c3ccc(Oc4ccccc4)cc3)c3c(NC(=O)OCCCCCC)ncnc32)C1
Req: Which entry shows the lesser value of VRT(0-∞) here, A or B ? Your choice should be expressed through its label.
Resp: B
